- Tested on: SNB-78 CNS
- methodSummary: NCI tumour cell line growth inhibition, 48 h
readoutLabel: TGI (µM)
Enter your answer as a number in µM; do not include the unit.

# example entries with known answers
What does the record list as TGI for O=c1[nH]cnc2n[nH]nc12 ? 56.7

What does the record list as TGI for OCC(O)C(O)C(O)c1nn(-c2ccc(F)cc2)c2nc3cc(Cl)c(Cl)cc3nc12 (stereo not given) ? 27.4

***
What does the record list as TGI for COc1ccccc1C(=O)N(Cc1ccccc1)c1ccc(Cl)c(C(=O)OC(C)C)c1 ? 78

What does the record list as TGI for CCOC(=O)CCC(NC(=O)c1ccc(NC(OC)c2nc3cc(C(F)(F)F)ccc3nc2-c2ccccc2)cc1)C(=O)OCC (stereo not given) ? 37.3

What does the record list as TGI for CCOC(=O)C1=C(OC(OCC)C(CC)[Se]c2ccccc2)CCC1 (stereo not given) ? 97.4

###

- Tested on: DU-145 prostate
- methodSummary: NCI tumour cell line growth inhibition, 48 h
readoutLabel: GI50

What does the record list as GI50 for CCOC(=O)/C(=C\c1ccc2ccccc2c1)P(=O)(OCC)OCC ? 2630 nM

What does the record list as GI50 for C[C@@H]1CCc2ncc(F)cc2[C@H]2CCCN2c2ccn3ncc(c3n2)C(=O)N1 ? 73700 nM

What does the record list as GI50 for COc1ccc2c(c1)C(=O)c1c-2c(OCCN(C)C)nc2cc(OC)c(OC)cc12 ? 2930 nM

***
What does the record list as GI50 for O=[N+]([O-])/C=C/c1ccc(Cl)cc1[N+](=O)[O-] ? 2520 nM

###

- Tested on: K-562 leukemia
- methodSummary: NCI tumour cell line growth inhibition, 48 h
Reported TGI values for a set of compounds

# example entries with known answers
What does the record list as TGI for COc1ccc(C2=Nn3c(nnc3-n3nc(C)cc3C)SC2)cc1 ? > 100 µM

What does the record list as TGI for CCCNCCCCC(NC(C)=O)C(=O)NCc1ccccc1 (stereo not drawn) ? > 100 µM

Attention now turns to another entry.
What does the record list as TGI for CC(C)(O)c1cc2c(cc1C(C)(C)O)-c1ccccc1-2 ? > 100 µM

###

- Tested on: MOLT-4 leukemia
- methodSummary: NCI tumour cell line growth inhibition, 48 h; in the data active = GI50 below about 0.43 µM; inactive = the rest
Respond only with the outcome that fits, drawn from true (1) (active), false (0) (inactive)

Examples from the recorded data:
# fetch the recorded call for CC(C)OP(=O)(O)c1ncc(-c2ccc(C(F)(F)F)cc2)c(NC2CCCCCC2)n1 here false (0)

# fetch the recorded call for CCOC(=O)c1c(CN2CCN(C)CC2)nc2ccc(Cl)cc2c1-c1ccccc1 here false (0)

# fetch the recorded call for CC(O)[C@H](NC(=O)N[C@@H](CC(N)=O)c1nc(N2CCNCC2)no1)C(=O)O (some centres not stated) here false (0)

# fetch the recorded call for COc1ccc(C2=Nn3c(nnc3-n3nc(C)cc3C)SC2)cc1 here true (1)

# fetch the recorded call for C=CC(=O)Nc1cc2c(Nc3ccc(F)c(Cl)c3)ncnc2cc1C#CC(C)(C)N1CCN(C)CC1 here false (0)

# fetch the recorded call for O=[N+]([O-])/C=C/c1ccc(Cl)cc1[N+](=O)[O-] here false (0)

Pending compound:
# fetch the recorded call for COc1cc2c3c(n(CCCNCCCNCCCN)c(=O)c2cc1OC)-c1cc2c(cc1C3=O)OCO2 here false (0)
